All figures here come from patent US8901118B2.

Molecular target: BCR-NTRK1 BaF3 cells (Homo sapiens, UniProt P04629)
Construct: fused on or other part: P11274 (Breakpoint cluster region protein)
Sequence (P04629 510-781): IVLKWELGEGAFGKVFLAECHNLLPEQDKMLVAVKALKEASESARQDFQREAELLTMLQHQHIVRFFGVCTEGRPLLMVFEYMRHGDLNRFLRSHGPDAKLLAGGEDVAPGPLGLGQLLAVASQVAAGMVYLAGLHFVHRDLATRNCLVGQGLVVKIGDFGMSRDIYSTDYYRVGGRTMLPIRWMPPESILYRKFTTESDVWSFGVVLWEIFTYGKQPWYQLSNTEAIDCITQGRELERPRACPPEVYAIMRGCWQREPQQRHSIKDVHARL
Assay: BaF3 BCR-NTRK1 cell proliferation assay (ATPlite)
Settings: read-out: Inhibition of Cell Proliferation IC50, BCR/BaF3 TrkA
pIC50: −log10 of the molar value.
attribute measured: pIC50

compound | pIC50
Cc1cnc2[nH]cc(Cc3cnc(Nc4cc(C(C)(C)C)n[nH]4)nc3)c2c1 [Compound P-3029] | < 6.00
CNc1ncnc2[nH]cc(C(=O)c3ccc(NC4CCC(F)(F)CC4)nc3)c12 [Compound P-4089] | > 6.00
COc1ccc(Nc2ccc(C(=O)c3c[nH]c4ncnc(NC5CC5)c34)c(F)n2)cn1 [Compound P-4126] | > 8.00
O=C(c1ccc(Nc2ccc(C3CC3)nc2)nc1F)c1c[nH]c2ncnc(C3CC3)c12 [Compound P-4040] | > 8.00
COc1ccc(Nc2ccc(C(=O)c3c[nH]c4ncnc(N5CCOCC5)c34)c(F)n2)cn1 [Compound P-4070] | < 6.00
CCOc1ccc(Nc2ncc(Cc3c[nH]c4ncc(C)cc34)cn2)cc1 [Compound P-3026] | > 7.00
CCOc1ncnc2[nH]cc(Cc3ccc(Nc4cccnc4)nc3F)c12 [Compound P-4021] | < 6.00
COc1ccc(Nc2ccc(C(=O)c3c[nH]c4ncnc(N5CCCCC5)c34)c(F)n2)cn1 [Compound P-4069] | < 6.00
Fc1nc(Nc2ccc(C3CC3)nc2)ccc1Cc1c[nH]c2ncnc(C3CC3)c12 [Compound P-4041] | > 8.00
CCc1ccc(Nc2ccc(C(=O)c3c[nH]c4ncnc(NCCCOC)c34)c(F)n2)cn1 [Compound P-4098] | > 8.00

query: Lab request: please report pIC50 under test system BCR-NTRK1 BaF3 cells (Homo sapiens, UniProt P04629) for Fc1nc(Nc2ccc(C3CC3)nc2)ccc1Cc1c[nH]c2ncccc12 [Compound P-3053]
result: > 7.00

query: Cool, now CNc1ncnc2[nH]cc(C(=O)c3ccc(Nc4cncc(OC)c4)nc3F)c12 [Compound P-4108]
result: > 6.00

query: Cool, now CNc1ncnc2[nH]cc(C(=O)c3ccc(NC4CCC(F)(F)CC4)nc3F)c12 [Compound P-4063]
result: > 8.00

query: Cool, now CCNc1ncnc2[nH]cc(C(=O)c3ccc(Nc4ccc(C5CC5)nc4)nc3F)c12 [Compound P-4060]
result: > 8.00

query: Cool, now Cc1cnc2[nH]cc(Cc3cnc(Nc4ccc(S(C)(=O)=O)cc4)nc3)c2c1 [Compound P-3034]
result: > 7.00

query: Cool, now CCOc1ccc(Nc2ccc(Cc3c[nH]c4ncnc(OC)c34)c(F)n2)cn1 [Compound P-4005]
result: > 7.00

query: Cool, now COc1ccccc1Nc1ncc(Cc2c[nH]c3ncc(Cl)cc23)cn1 [Compound P-3016]
result: < 5.00
